Source of measurements: ChEMBL document CHEMBL4396871

target_entity: 5-hydroxytryptamine receptor 1B (Homo sapiens)
Sequence (P28222 whole entry): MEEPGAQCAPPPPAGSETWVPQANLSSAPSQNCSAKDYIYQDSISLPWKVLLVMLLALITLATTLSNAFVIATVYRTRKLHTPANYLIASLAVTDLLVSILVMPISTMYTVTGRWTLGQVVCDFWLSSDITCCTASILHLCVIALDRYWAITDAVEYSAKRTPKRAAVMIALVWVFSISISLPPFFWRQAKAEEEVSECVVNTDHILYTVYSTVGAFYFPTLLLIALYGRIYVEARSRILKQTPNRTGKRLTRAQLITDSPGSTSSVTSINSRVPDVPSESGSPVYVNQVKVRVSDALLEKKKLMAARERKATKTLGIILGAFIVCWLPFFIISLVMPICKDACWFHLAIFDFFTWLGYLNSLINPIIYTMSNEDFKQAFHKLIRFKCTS
assay_procedure: Displacement of [3H]-5-CT from recombinant human 5HT1B receptor stably expressed in HEK cell membranes measured after 90 mins by microbeta scintillation counting method
result_type: Ki
Provide a numeric answer, followed by its unit.

Consider the compound COc1ccccc1N1CCN(CCCSc2nnc(-c3ccccc3)n2C)CC1 and give its measured Ki.
2030 nM

----------
Let's look at some compounds and their measured Ki.
target_entity: D(3) dopamine receptor (Homo sapiens, UniProt P35462)
Sequence (P35462 whole entry): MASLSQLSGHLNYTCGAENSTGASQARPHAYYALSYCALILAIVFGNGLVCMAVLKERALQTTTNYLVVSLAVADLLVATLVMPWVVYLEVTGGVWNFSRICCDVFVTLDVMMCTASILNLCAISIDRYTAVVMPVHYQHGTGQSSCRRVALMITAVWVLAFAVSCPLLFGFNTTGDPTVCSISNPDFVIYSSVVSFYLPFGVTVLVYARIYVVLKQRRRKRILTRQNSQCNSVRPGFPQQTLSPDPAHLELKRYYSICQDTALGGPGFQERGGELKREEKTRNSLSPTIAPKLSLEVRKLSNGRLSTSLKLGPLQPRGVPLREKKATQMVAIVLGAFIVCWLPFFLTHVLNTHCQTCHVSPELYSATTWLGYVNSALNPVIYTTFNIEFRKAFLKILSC
assay_procedure: Displacement of [3H]N-methylspiperone from D3 receptor (unknown origin) measured after 90 mins by microbeta scintillation counting method relative to control
Numeric answer only, unit nM assumed.

Provide the documented Ki with D(3) dopamine receptor (Homo sapiens, UniProt P35462) as the system for COc1ccccc1N1CCC2(CCN(CCCSc3nnc(-c4ccccc4)n3C)CC2)CC1
94

Continue with the compound presented below.
Provide the documented Ki with D(3) dopamine receptor (Homo sapiens, UniProt P35462) as the system for COc1ccccc1N1CCN(CCCSc2nnc(-c3ccccc3)n2C)CC1
6

----------
target_entity: D2 dopamine receptor (Homo sapiens, UniProt P14416)
Sequence (P14416 whole entry): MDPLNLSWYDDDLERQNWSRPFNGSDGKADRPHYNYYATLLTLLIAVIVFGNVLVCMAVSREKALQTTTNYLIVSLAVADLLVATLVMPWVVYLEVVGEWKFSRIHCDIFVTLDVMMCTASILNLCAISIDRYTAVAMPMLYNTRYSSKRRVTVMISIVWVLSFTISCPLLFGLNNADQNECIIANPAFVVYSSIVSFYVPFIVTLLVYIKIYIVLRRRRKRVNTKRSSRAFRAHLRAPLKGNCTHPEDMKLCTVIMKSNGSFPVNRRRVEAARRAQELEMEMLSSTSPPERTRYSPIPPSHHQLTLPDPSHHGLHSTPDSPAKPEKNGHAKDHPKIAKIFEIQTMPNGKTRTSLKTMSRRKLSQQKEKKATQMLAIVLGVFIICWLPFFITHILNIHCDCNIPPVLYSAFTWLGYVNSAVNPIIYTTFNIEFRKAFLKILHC
assay_procedure: Displacement of [3H]N-methylspiperone from recombinant human D2 receptor stably expressed in fibroblast at 10 uM measured after 90 mins by microbeta scintillation counting method relative to control
recorded_conditions: fibroblasts stably expressing recombinant human D2 receptor, probe [3H]N-methylspiperone
result_type: inhibition at […], 10 µM

Consider the molecule COc1ccccc1N1CCC2(CCN(CCCSc3nnc(-c4ccccc4)n3C)CC2)CC1 and give its measured inhibition at […], 10 µM.
< 50%

----------
target_entity: D(3) dopamine receptor (Homo sapiens, UniProt P35462)
assay_procedure: Agonist activity at recombinant human D3 receptor expressed in CHOK1 cells assessed as induction of beta arrestin2 recruitment measured after 30 mins by coelenterazine-based beta-galactosidase reporter gene assay
Type: cell-based
recorded_conditions: read-out: EC50
result_type: pEC50
In plain terms, pEC50 is the concentration in mol/L turned into minus its base-10 logarithm.

Consider the compound COc1ccccc1N1CCN(CCCSc2nnc(-c3ccccc3)n2C)CC1 and give its measured pEC50.
6.78

----------
Let's look at some compounds and their measured pKi.
target_entity: D2 dopamine receptor (Homo sapiens)
assay_procedure: Displacement of [125I]IABN from recombinant human D2 long receptor stably expressed in HEK293 cell membranes measured after 60 mins by scintillation counting analysis
In plain terms, pKi is the concentration in mol/L turned into minus its base-10 logarithm.

Below, each entry is followed by its recorded pKi result.
Provide the documented pKi with D2 dopamine receptor (Homo sapiens) as the system for COc1ccccc1N1CCC2(CCN(CCCSc3ncc(-c4ccccc4)[nH]3)CC2)CC1
5.23

Provide the documented pKi with D2 dopamine receptor (Homo sapiens) as the system for COc1ccccc1N1CCC2(CCNCC2)CC1
4.00

Provide the documented pKi with D2 dopamine receptor (Homo sapiens) as the system for COc1cc(F)ccc1N1CCC2(CCN(CCCSc3nnc(-c4ccccc4)n3C)CC2)CC1
4.71

Provide the documented pKi with D2 dopamine receptor (Homo sapiens) as the system for COc1ccccc1N1CCC2(CCN(CCCSc3nnc(-c4ccc(N(C)C)cc4)n3C)CC2)CC1
4.92

***
Provide the documented pKi with D2 dopamine receptor (Homo sapiens) as the system for COc1ccccc1N1CCC2(CCN(CCCSc3nnc(-c4ccccc4)[nH]3)CC2)CC1
5.93

----------
target_entity: D(3) dopamine receptor (Homo sapiens)
assay_procedure: Displacement of [125I]IABN from recombinant human D3 receptor stably expressed in HEK293 cell membranes measured after 60 mins by scintillation counting analysis
pKi: −log10 of the molar value.
Cut-off 6 on pKi, inclusive. At or above means true; below means false.

These solved cases illustrate the format of a correct answer.
State whether the measured pKi reaches 6, counting equality as reaching it, for COc1ccccc1N1CCC2(CCN(CCCSc3nnc(-c4ccc(N(C)C)cc4)n3C)CC2)CC1
true

State whether the measured pKi reaches 6, counting equality as reaching it, for COc1ccccc1N1CCC2(CCN(CCCCNC(=O)c3ccc(-c4ccsc4)cc3)CC2)CC1
true

State whether the measured pKi reaches 6, counting equality as reaching it, for CCCCN1CCC2(CC1)CCN(c1ccccc1OC)CC2
false

State whether the measured pKi reaches 6, counting equality as reaching it, for COc1ccccc1N1CCC2(CCN(CCCOc3ccc4c(c3)NC(=O)CC4)CC2)CC1
false

State whether the measured pKi reaches 6, counting equality as reaching it, for COc1ccccc1N1CCC2(CCN(CCCSc3ncc(-c4ccccc4)[nH]3)CC2)CC1
true

State whether the measured pKi reaches 6, counting equality as reaching it, for COc1ccccc1N1CCC2(CCN(CCCSc3ncc(-c4ccccc4)n3C)CC2)CC1
true

***
State whether the measured pKi reaches 6, counting equality as reaching it, for Cn1c(SCCCN2CCNCC2)nnc1-c1ccccc1
false

State whether the measured pKi reaches 6, counting equality as reaching it, for CCOc1ccccc1N1CCC2(CCN(CCCSc3nnc(-c4ccccc4)n3C)CC2)CC1
true

State whether the measured pKi reaches 6, counting equality as reaching it, for Cn1c(SCCCN2CCC3(CC2)CCN(c2ccc(C(F)(F)F)cc2F)CC3)nnc1-c1ccccc1
true
